The reported measurements were obtained from PubChem BioAssay (EPA / NIEHS).

Target: Hepatocyte nuclear factor 6 (Homo sapiens) (UniProt Q9UBC0)
Sequence (Q9UBC0 whole entry, looked up): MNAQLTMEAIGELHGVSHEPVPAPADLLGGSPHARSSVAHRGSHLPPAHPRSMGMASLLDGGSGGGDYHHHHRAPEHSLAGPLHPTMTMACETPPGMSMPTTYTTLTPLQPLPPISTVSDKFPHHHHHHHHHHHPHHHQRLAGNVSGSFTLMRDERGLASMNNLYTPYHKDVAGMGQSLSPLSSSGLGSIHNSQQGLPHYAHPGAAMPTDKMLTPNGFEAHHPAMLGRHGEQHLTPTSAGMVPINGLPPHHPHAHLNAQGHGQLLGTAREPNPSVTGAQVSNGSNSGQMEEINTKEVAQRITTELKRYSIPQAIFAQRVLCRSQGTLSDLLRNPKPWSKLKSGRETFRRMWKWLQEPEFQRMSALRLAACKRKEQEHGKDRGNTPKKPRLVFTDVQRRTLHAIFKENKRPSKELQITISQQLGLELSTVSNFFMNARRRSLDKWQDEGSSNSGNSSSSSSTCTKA
Assay: ATG_HNF6_CIS: Attagene CIS-FACTORIAL HepG2 Assay for human Hepatocyte Nuclear Factor 6 (HNF6) (AID 2282952)
Conditions: HepG2 Attagene cis-factorial HNF6 reporter transcription; actives raise or lower the signal
The source made the active and inactive calls. Rule for the calls: active = hit-call score of the fitted dose curve at least 0.9, where 1 is the maximum; inactive = score below 0.9.
One label from this list, please: active, inactive

{"columns": ["molecule", "classAssignment"],
 "data": [
  ["O=C(O)c1cc(Cl)cc([N+](=O)[O-])c1Cl", "inactive"]
]}

Request: Called result for `CCCCCCCCCCCCCCCCCC#N`
Response: inactive

Request: Input `O=C(O)C(c1ccc(Cl)cc1)c1ccc(Cl)cc1`
Response: inactive
